Readings of cytotoxicity at 70.5 h for the listed molecules
RUN_DESCRIPTION: Human HepG2 cell viability assay in 384 well format
Format: toxicity, cell-based
Parameters: dose 125 nL, time 70.5 hour; concentration not given beside the values
CONDITION_LABEL: HepG2 cells, read-out: Inhibition
Unit % implied. Number only.

Example entries begin here.
- COc1ccccc1C(=O)N1CCOC2(CCCN(C(C)=O)C2)C1 (stereo unspecified): -12.3
- CC(=O)NCCC1CCN(c2nc(C(C)(C)C)nc3c2cnn3C)CC1: -1.1
- CCC(=O)NCC(=O)Nc1ncc(I)cc1C: 0.64
- Cc1nc(-c2ccsc2)ccc1C(=O)NC(C)CN1CCOCC1 (stereo unspecified): -3.57
- Cc1c(CC(=O)N2CCSCC2)nnn1-c1cccc(Cl)c1: 23.4
- CN(CC(=O)NCCc1ccccn1)C(=O)c1cccs1: -19.9

Record summary for `COc1ccccc1-c1ncc(CN2CCCC[C@H](N(C)C)C2)s1` : reported cytotoxicity at 70.5 h = 4.63

Record summary for Clc1cncc(N2CCCC2c2nnc3n2CCCCC3)n1 (stereo unspecified) : reported cytotoxicity at 70.5 h = -17.1

====

RUN_DESCRIPTION: Human HepG2 cell viability assay in 384 well format
Assay type: toxicity, cell-based
Set-up: dose 125 nL, time 70.5 hour; concentration not given beside the values
CONDITION_LABEL: HepG2 cells, read-out: Inhibition
Readings of cytotoxicity at 70.5 h for the listed compounds
Unit % implied. Number only.

Example entries begin here.
- CNC(=O)[C@@H]1C[C@H](N)CN1S(=O)(=O)c1cc(C)c(Cl)cc1C: 1.05
- c1ccc(N2CCCC3(CCN(Cc4cccs4)C3)C2)nc1 (stereo not drawn): 33.5

Record summary for `CCCc1nc(N2CCCN(c3ncccn3)CC2)c2cnn(C)c2n1` : reported cytotoxicity at 70.5 h = 4.78

Record summary for CC(=O)N1CCN(Cc2cccs2)CC2(CC(=O)N(C)C2)C1 (stereo not drawn) : reported cytotoxicity at 70.5 h = -9.26

Record summary for `O=C(CCc1nc2cccnc2[nH]1)NCc1cccnc1` : reported cytotoxicity at 70.5 h = 0.275

Record summary for `O=C(c1ccc(-c2cccc3c2CCNC3)o1)N1CCCCC1` : reported cytotoxicity at 70.5 h = -3.94

Record summary for `Cc1cnn(Cc2cc(F)ccc2F)c1NC(=O)CNC(=O)C1CC1` : reported cytotoxicity at 70.5 h = 1.15

Record summary for `COc1ccc(-c2noc(Cn3cc(C)cn3)n2)c(OC)c1OC` : reported cytotoxicity at 70.5 h = -1.78

Record summary for COCCNc1ccc(CC2CCCN(c3ncccn3)C2)nn1 (stereo not drawn) : reported cytotoxicity at 70.5 h = -1.21

Record summary for `CS(=O)(=O)CCSCc1ccc(Br)c(F)c1` : reported cytotoxicity at 70.5 h = -1.55

Record summary for NC(=O)CN1CCC(NC(=O)N2CCCC2c2ccsc2)CC1 (stereo not drawn) : reported cytotoxicity at 70.5 h = -6.14

Record summary for `CCNC(=O)[C@@H]1C[C@H](N)CN1Cc1ccc(-c2ccccc2C#N)o1` : reported cytotoxicity at 70.5 h = 9.56

Record summary for CC(=O)N1CCC(c2cc(Nc3ncccn3)nc(C)n2)C1 (stereo not drawn) : reported cytotoxicity at 70.5 h = -6.88

Record summary for `COCCNC(=O)c1cn(C(C)(C)C)c2ncccc12` : reported cytotoxicity at 70.5 h = -5.71

Record summary for `CC(=O)NCC1CCN(C(=O)c2csc(-c3ccc(C)cc3C)n2)CC1` : reported cytotoxicity at 70.5 h = -10.6

Record summary for Cc1cnn(CCC(=O)NC2CCc3nc(C)cn3C2)c1 (stereo not drawn) : reported cytotoxicity at 70.5 h = -3.94

Record summary for `O=C1CCCN1Cc1nnc2n1CCCN(C(=O)c1ccc[nH]1)C2` : reported cytotoxicity at 70.5 h = 5.33

Record summary for `CS(=O)(=O)N[C@H]1CN(CCOCc2ccccc2)C[C@@H]1C1CC1` : reported cytotoxicity at 70.5 h = -2.16

Record summary for `CC(C)(C)OC(=O)N1CSC[C@@H]1C(=O)NCc1ccsc1` : reported cytotoxicity at 70.5 h = -1.79

Record summary for Cc1c(C2CCCN(C(=O)c3ccn(C)n3)C2)n2c(nc1=O)CCC2 (stereo not drawn) : reported cytotoxicity at 70.5 h = -7.35

Record summary for CCc1nccn1CCC(=O)N1CCOC(c2ccc(F)cc2)C1 (stereo not drawn) : reported cytotoxicity at 70.5 h = -6.46

Record summary for Cc1nc(CN(C)C2CCN(CC3CCCC3)C2)no1 (stereo not drawn) : reported cytotoxicity at 70.5 h = -1.44

Record summary for Cc1ccc(OC[C@@H]2CNC[C@H](C(=O)NCC3CCCO3)C2)cn1 (stereo partly drawn) : reported cytotoxicity at 70.5 h = -1.9

Record summary for `COc1cc(C)sc1C(=O)NCCC(=O)N(C)Cc1ccccc1` : reported cytotoxicity at 70.5 h = -3.28

Record summary for O=c1cccnn1CC1CN(CC2CCCC2)Cc2nccn2C1 (stereo not drawn) : reported cytotoxicity at 70.5 h = -5.89

Record summary for `O=C(CCCN1CCCCC1)N1CCN(C(=O)c2ccc[nH]2)CC1` : reported cytotoxicity at 70.5 h = 3.29

====

Readings of cytotoxicity at 70.5 h for the listed compounds
RUN_DESCRIPTION: Human HepG2 cell viability assay in 384 well format
Type: toxicity, cell-based
Design: dose 125 nL, time 70.5 hour; concentration not given beside the values
CONDITION_LABEL: HepG2 cells, read-out: Inhibition
Unit % implied. Number only.

- NC(=O)[C@@H]1Cc2ccccc2CN1S(=O)(=O)N1CCCCCC1: -4.6
- Cc1ncc2c(n1)CCCC2NC(=O)c1cnn(Cc2ccccc2)c1 (stereo unspecified): -12.8
- O=C(O)c1ccccc1-c1cnc(CNC(=O)C2CCOCC2)nc1: 14
- CC(C)(NCCOc1ccc(CC#N)cc1)c1nccs1: -2.87
- CN(C)c1ncc(CNC(=O)Nc2ccccc2C(F)(F)F)n1C: 18.7
- CCn1cnnc1CNC(=O)NCC(O)c1ccc(OC)cc1 (stereo unspecified): -4.35

We now examine a further compound.
Record summary for `Cc1nc(CNCc2cccnc2Oc2ccc(C)c(F)c2F)c[nH]1` : reported cytotoxicity at 70.5 h = 0.762

====

RUN_DESCRIPTION: Human HepG2 cell viability assay in 384 well format
Format: toxicity, cell-based
Parameters: dose 125 nL, time 70.5 hour; concentration not given beside the values
CONDITION_LABEL: HepG2 cells, read-out: Inhibition
MEASURE_NAME: cytotoxicity at 70.5 h (%)
Unit % implied. Number only.

* C1CC(CN2CCO[C@H]3[C@H](OCC4CC4)CC[C@@H]32)CCO1 | -2.31
* CCc1cnc(N2CC[C@@H]3CN(C(=O)c4ccco4)CCO[C@@H]3C2)nc1 | -10.8
* CCc1c(C)nc(SCc2ccccn2)[nH]c1=O | -5.97

Record summary for `Cc1cc(C[C@@H]2COC[C@H]2NCc2ccc(Cl)c(Cl)c2)on1` : reported cytotoxicity at 70.5 h = 19.8

Record summary for `Cc1c[nH]c(CN(C)C(=O)C(C)(C)NC(=O)c2cccs2)n1` : reported cytotoxicity at 70.5 h = -19.9

Record summary for `CN(Cc1nnnn1C1CC1)c1cccc2ccccc12` : reported cytotoxicity at 70.5 h = 0.192

Record summary for `CCCn1ncc(C(=O)N2CCN(C3CCCC3)CC2)c1C` : reported cytotoxicity at 70.5 h = -3.82

Record summary for CC(C)(C)c1nc(CN2CCCC2Cn2cncn2)no1 (stereo unspecified) : reported cytotoxicity at 70.5 h = -5.99

Record summary for `COc1cccc(/C=C/CCN2CCCN(C(C)=O)CC2)c1` : reported cytotoxicity at 70.5 h = -6.2

Record summary for `O=C(Nc1ccc(-n2ccnc2)c(F)c1)C1CCN(C(=O)C2CC2)CC1` : reported cytotoxicity at 70.5 h = -1.97

Record summary for COc1ccc(CN2CCCC3(CC2)CNC(=O)O3)cc1OC (stereo unspecified) : reported cytotoxicity at 70.5 h = 12.1

Record summary for `O=S(=O)(NCCCn1cncn1)c1ccc2c(c1)CCO2` : reported cytotoxicity at 70.5 h = -5.26

Record summary for `Cc1csc(N2CCN(Cc3ccccn3)CC2)n1` : reported cytotoxicity at 70.5 h = -9.56

Record summary for Cc1nc(CN2CCCC(c3cc(C(F)(F)F)[nH]n3)C2)cs1 (stereo unspecified) : reported cytotoxicity at 70.5 h = -3.08

Record summary for `O=C(CSc1ccc2c(c1)OCCO2)NS(=O)(=O)c1cccnc1` : reported cytotoxicity at 70.5 h = -3.19

Record summary for `Cn1cnc2c1CCN(Cc1cccc(C(=O)N3CCCCC3)c1)C2` : reported cytotoxicity at 70.5 h = -7.19

====

Readings of cytotoxicity at 70.5 h for the listed compounds
RUN_DESCRIPTION: Human HepG2 cell viability assay in 384 well format
Type: toxicity, cell-based
Parameters: dose 125 nL, time 70.5 hour; concentration not given beside the values
CONDITION_LABEL: HepG2 cells, read-out: Inhibition
Unit % implied. Number only.

Record summary for `CN(Cc1ccsc1)C(=O)c1nc(N2CCCCC2)ncc1Cl` : reported cytotoxicity at 70.5 h = -14.3
